Entry source: patent US4522752A

Molecular target: angiotensin conversion enzyme (Oryctolagus cuniculus, UniProt P12822)
Construct: the enzyme isolated from rabbit lungs; from tissue; host or cells: rabbit lung
Sequence (P12822 34-1310): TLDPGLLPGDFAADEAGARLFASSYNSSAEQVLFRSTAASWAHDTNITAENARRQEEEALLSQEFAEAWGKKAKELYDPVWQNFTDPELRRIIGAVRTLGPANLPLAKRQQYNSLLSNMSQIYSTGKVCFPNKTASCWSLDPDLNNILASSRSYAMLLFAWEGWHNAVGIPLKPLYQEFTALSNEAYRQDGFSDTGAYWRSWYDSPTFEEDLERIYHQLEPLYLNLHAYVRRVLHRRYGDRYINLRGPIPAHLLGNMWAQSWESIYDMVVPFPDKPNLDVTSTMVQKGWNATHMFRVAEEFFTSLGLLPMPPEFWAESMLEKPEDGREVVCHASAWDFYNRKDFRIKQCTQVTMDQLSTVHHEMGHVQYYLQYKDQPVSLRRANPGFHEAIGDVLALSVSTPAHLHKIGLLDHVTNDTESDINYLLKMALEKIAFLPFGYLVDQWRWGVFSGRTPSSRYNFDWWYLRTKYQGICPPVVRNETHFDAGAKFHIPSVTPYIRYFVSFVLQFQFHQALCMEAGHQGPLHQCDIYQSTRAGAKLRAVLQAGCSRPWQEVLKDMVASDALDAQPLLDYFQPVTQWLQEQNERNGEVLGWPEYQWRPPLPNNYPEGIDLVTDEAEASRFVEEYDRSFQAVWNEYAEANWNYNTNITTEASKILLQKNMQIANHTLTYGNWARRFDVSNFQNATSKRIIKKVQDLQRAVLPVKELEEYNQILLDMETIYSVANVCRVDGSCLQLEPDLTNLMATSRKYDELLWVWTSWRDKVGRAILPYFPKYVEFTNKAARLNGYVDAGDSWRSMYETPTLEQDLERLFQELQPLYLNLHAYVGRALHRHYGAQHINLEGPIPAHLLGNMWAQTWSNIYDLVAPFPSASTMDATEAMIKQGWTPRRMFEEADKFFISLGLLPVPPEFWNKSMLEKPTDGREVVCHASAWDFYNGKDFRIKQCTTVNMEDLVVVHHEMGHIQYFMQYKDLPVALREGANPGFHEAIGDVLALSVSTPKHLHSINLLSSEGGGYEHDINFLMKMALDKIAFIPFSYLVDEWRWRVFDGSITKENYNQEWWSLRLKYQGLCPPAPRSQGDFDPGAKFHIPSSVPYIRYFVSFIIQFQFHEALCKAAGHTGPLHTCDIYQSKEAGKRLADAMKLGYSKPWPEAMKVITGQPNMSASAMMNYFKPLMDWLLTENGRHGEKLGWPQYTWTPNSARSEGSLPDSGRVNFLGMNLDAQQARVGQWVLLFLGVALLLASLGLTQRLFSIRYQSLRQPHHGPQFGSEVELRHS
Assay: Inhibition of the angiotensin conversion enzyme in vitro (method of Cushman and Cheung)
Assay type: biochemical
Conditions: enzyme isolated from rabbit lungs, read-out: I50
Where a SMILES comes first, the peptide text is derived from it. [ ]: non-standard residue; d: D form. The star is where a group is joined. Hyp = O=C(O)[C@@H]1C[C@@H](O)CN1; pGlu = O=C1CC[C@@H](C(=O)O)N1; Bn = c1ccc(C*)cc1
measurement.kind: IC50 (nM)
One number for each entry, in nM.

Study these solved cases before continuing.
compound	target.desc	unit.of.measure	IC50
C[C@H](NC(=O)[C@H](Cc1ccccc1)NC(=O)[C@H](CCCCN)NC(=O)[C@@H]1CCC(=O)N1)C(=O)N1C[C@H](OCc2ccccc2)C[C@H]1C(=O)O [Glp--Lys--Phe--Ala--Hyp(OBz)] ([pGlu]KFA[Hyp](Bn)-OH)	angiotensin conversion enzyme (Oryctolagus cuniculus, UniProt P12822)	nM	110
C[C@H](NC(=O)[C@H](Cc1ccccc1)NC(=O)[C@H](CCCCN)NC(=O)[C@@H]1CCC(=O)N1)C(=O)N1CCC[C@H]1C(=O)O [Glp--Lys--Phe--Ala--Pro] ([pGlu]KFAP-OH)	angiotensin conversion enzyme (Oryctolagus cuniculus, UniProt P12822)	nM	130

Then this compound:
## Task What IC50 value was documented for this compound, C[C@H](NC(=O)C(Cc1ccccc1)C(=O)N[C@H](CCCCN)C(=O)NC1CCC(=O)N1)C(=O)N1CCC[C@H]1C(=O)O (stereo partly drawn) ?
## Result 85000
